System: DU-145
MEASUREMENT_DESCRIPTION: NCI tumour cell line growth inhibition, 48 h
The source made the active and inactive calls. Rule as the data show it: active = GI50 up to about 1.1 µM and inactive = higher.
Recorded measurements of GI50, one per entry

>  <COMPOUND>
C1=N\c2ccc(cc2)/N=C\c2ccc(cc2)OCc2cccc(n2)COc2ccc/1cc2

>  <GI50>
> 100 µM (inactive)

$$$$
>  <COMPOUND>
COc1ccc(/C=C/C(=O)c2ccc(Br)cc2)cc1

>  <GI50>
> 100 µM (inactive)

$$$$
>  <COMPOUND>
Cc1ccc(S(=O)(=O)N/N=C2/C3CC4CCC2C4C3)cc1 (stereo unspecified)

>  <GI50>
> 100 µM (inactive)

$$$$
>  <COMPOUND>
Nc1nc(=O)c2cc(NCc3ccc(C(=O)NC(CCC(=O)O)C(=O)O)cc3)ccc2[nH]1 (stereo unspecified)

>  <GI50>
> 100 µM (inactive)

$$$$
>  <COMPOUND>
COc1cc2c(cc1OC)C1Cc3ccccc3CCN1CC2 (stereo unspecified)

>  <GI50>
> 100 µM (inactive)

$$$$
>  <COMPOUND>
O=C1C(Cl)=C(Cl)C(=O)C(CCNc2nccs2)=C1Cl

>  <GI50>
58.7 µM (inactive)

$$$$
